tested on: B. subtilis 168; assay: fitness (endpoint OD595 vs no drug) (fraction); higher = more growth; details: first compound 0.5 µg/mL; partner 2 µg/mL;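 also: OD595 on entry to stationary phase over no-drug wells; at most 1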
attribute_measured: fitness
Could you respond with only the numeric value?

Which fitness is reported for this compound? CC(=O)NC[C@H]1CN(c2ccc(N3CCOCC3)c(F)c2)C(=O)O1 [Linezolid] + CN[C@@H]1[C@H](O)[C@H](NC)[C@H]2O[C@@]3(O)C(=O)C[C@@H](C)O[C@H]3O[C@@H]2[C@H]1O [Spectinomycin]
0.0491

Check CC(=O)NC[C@H]1CN(c2ccc(N3CCOCC3)c(F)c2)C(=O)O1 [Linezolid] + Cc1cc(NS(=O)(=O)c2ccc(N)cc2)no1 [Sulfamethoxazol] too.
0.0265

Check CC(=O)NC[C@H]1CN(c2ccc(N3CCOCC3)c(F)c2)C(=O)O1 [Linezolid] + CN[C@@H]1[C@H](O[C@H]2[C@H](O[C@H]3[C@H](O)[C@@H](O)[C@H](N=C(N)N)[C@@H](O)[C@@H]3N=C(N)N)O[C@@H](C)[C@]2(O)C=O)O[C@@H](CO)[C@H](O)[C@H]1O [Streptomycin] too.
0.0384

More entries:
Which fitness is reported for this compound? CC(=O)NC[C@H]1CN(c2ccc(N3CCOCC3)c(F)c2)C(=O)O1 [Linezolid] + COc1c(N2C[C@@H]3CCCN[C@@H]3C2)c(F)cc2c(=O)c(C(=O)O)cn(C3CC3)c12 [Moxifloxacin]
0.0308

###

system: S. pneumoniae D39V; assay: fitness (endpoint OD595 vs no drug) (fraction); higher = more growth; details: first compound 0.00215 µg/mL; partner 2 µg/mL
attribute_measured: fitness
Could you respond with only the numeric value?

Previously resolved entries follow.
Lab note: need fitness for CO[C@@]12[C@H](COC(N)=O)C3=C(C(=O)C(C)=C(N)C3=O)N1C[C@@H]1N[C@@H]12 [Mitomycin C] + CN[C@@H]1[C@H](O[C@H]2[C@H](O[C@H]3[C@H](O)[C@@H](O)[C@H](N=C(N)N)[C@@H](O)[C@@H]3N=C(N)N)O[C@@H](C)[C@]2(O)C=O)O[C@@H](CO)[C@H](O)[C@H]1O [Streptomycin] on S. pneumoniae D39V, anyone have it?
0.838

Check CO[C@@]12[C@H](COC(N)=O)C3=C(C(=O)C(C)=C(N)C3=O)N1C[C@@H]1N[C@@H]12 [Mitomycin C] + CC1=C\[C@@H](O)CC(=O)Cc2nc(co2)C(=O)N2CCC=C2C(=O)O[C@H](C(C)C)[C@H](C)/C=C/C(=O)NC\C=C\1 [Virginiamycin M1] too.
0.905

More entries:
Lab note: need fitness for CO[C@@]12[C@H](COC(N)=O)C3=C(C(=O)C(C)=C(N)C3=O)N1C[C@@H]1N[C@@H]12 [Mitomycin C] + COc1ccc(C[C@H](N)C(=O)N[C@H]2[C@@H](O)[C@H](n3cnc4c(N(C)C)ncnc43)O[C@@H]2CO)cc1 [Puromycin] on S. pneumoniae D39V, anyone have it?
0.915

Check CO[C@@]12[C@H](COC(N)=O)C3=C(C(=O)C(C)=C(N)C3=O)N1C[C@@H]1N[C@@H]12 [Mitomycin C] + Cc1cc(NS(=O)(=O)c2ccc(N)cc2)no1 [Sulfamethoxazol] too.
0.873

Check CO[C@@]12[C@H](COC(N)=O)C3=C(C(=O)C(C)=C(N)C3=O)N1C[C@@H]1N[C@@H]12 [Mitomycin C] + O=C1CN(/N=C/c2ccc([N+](=O)[O-])o2)C(=O)N1 [Nitrofurantoin] too.
0.883
